- SYSTEM UNDER TEST: KRAS G12S (Homo sapiens (Human), UniProt P01116+P62937, G12S)
- Sequence (P01116 other isoform, or with tags, fused parts or gaps G12S): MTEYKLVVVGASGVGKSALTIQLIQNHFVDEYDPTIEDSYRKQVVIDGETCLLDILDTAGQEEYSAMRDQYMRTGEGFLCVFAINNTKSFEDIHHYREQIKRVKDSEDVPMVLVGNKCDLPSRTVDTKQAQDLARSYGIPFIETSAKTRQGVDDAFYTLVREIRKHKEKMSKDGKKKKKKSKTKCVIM
- Sequence (P62937 whole entry): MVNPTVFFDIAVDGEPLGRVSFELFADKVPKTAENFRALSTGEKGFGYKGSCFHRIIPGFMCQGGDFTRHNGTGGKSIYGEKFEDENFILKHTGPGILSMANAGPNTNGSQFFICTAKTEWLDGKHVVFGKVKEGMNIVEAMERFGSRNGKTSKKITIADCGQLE
- METHOD NOTES: Ras-Raf disruption/FRET/MOA assay, KRAS G12S
- Type: biochemical
- RUN PARAMETERS: read-out: KRAS G12S FRET IC50
pIC50: −log10 of the molar value.
Hi there, I'd appreciate the recorded pIC50 for every entry that follows.

Examples from the recorded data:
STRUCTURE AS SMILES	PROPERTY	VALUE REPORTED
CCn1c(-c2cnccc2COC)c2c3cc(ccc31)-c1cc(O)cc(c1)C[C@H](NC(=O)[C@H](C(C)C)N(C)C(=O)CN1C(=O)[C@H]3N[C@H]3C1=O)C(=O)N1CCC[C@H](N1)C(=O)OCC(C)(C)C2	pIC50	5.00 to 6.00
CCn1c(-c2cccnc2[C@H](C)OC)c2c3cc(ccc31)-c1cccc(c1)C[C@H](NC(=O)[C@H](C(C)C)N1CC[C@@H](CN=C=NCCOC)C1)C(=O)N1CCC[C@H](N1)C(=O)OCC(C)(C)C2	pIC50	5.00 to 6.00

Asked: Please look up its pIC50: CCn1c(-c2cnccc2COC)c2c3cc(ccc31)-c1cc(O)cc(c1)C[C@H](NC(=O)[C@H](C(C)C)N(C)C(=O)C1CN(C(=O)[C@H]3CN3)C1)C(=O)N1CCC[C@H](N1)C(=O)OCC(C)(C)C2
Given back: 6.00 to 7.00
